system: brains, heart, liver, muscle, and DRG of the NHPs; assay: Maturation of TTM-001 and TTM-002 capsids, NGS enrichment in NHP tissues; type: in vivo; conditions: NHP liver RNA; NGS; TTM-001 and TTM-002 matured AAV capsid variants; relative to AAV9 control
Use 30 fold as the dividing line for Fold Enrichment relative to AAV9, Liver RNA (NHP), with the line itself on the true side and lower values as false.

>>> label_value("KTINGSGSPHSKAQMQIT")
"false"
>>> label_value("KTRKRSGSPHSKAQNQQT")
"false"
>>> label_value("KTINGSYSPHCLAQNQQT (peptide inserted in AAV capsid)")
"true"
>>> label_value("KTINGSGSPHSKRNYQQT")
"false"
>>> label_value("KTINGSGSPHSKRHRQQT")
"true"
>>> label_value("KTINGSGSPHSKAFYIQT")
"false"
>>> label_value("KTINGSGSPHSMCQNQQT")
"true"
>>> label_value("KTINGSGSPHSKAFSWQT")
"true"
>>> label_value("KTINGSGSPHYGIQNQQT")
"true"
>>> label_value("KTINALRSPHSKAQNQQT")
"false"
>>> label_value("KTINGSGSPHSKAQNFKR")
"true"
>>> label_value("KTINGSGSPHSKCSVQQT")
"false"
>>> label_value("KYVFGSGSPHSKAQNQQT (peptide inserted in AAV capsid)")
"false"
>>> label_value("KFFHGSGSPHSKAQNQQT")
"false"
>>> label_value("KTINGSGSPHSWAPNQQT")
"true"
>>> label_value("KTINGSGSPHSKRYTQQT")
"false"
>>> label_value("KTINGAYSPHRKAQNQQT")
"true"
>>> label_value("KTINGSGSPHPRKQNQQT")
"false"
>>> label_value("KTINGSRSPHAWAQNQQT (peptide inserted in AAV capsid)")
"true"
>>> label_value("KTMQRSGSPHSKAQNQQT")
"false"

----------
test system: brains, heart, liver, muscle, and DRG of the NHPs; assay: Maturation of TTM-001 and TTM-002 capsids, NGS enrichment in NHP tissues; assay type: in vivo; details: NHP liver, DNA; relative to AAV9 control
Catalogue of Fold Enrichment relative to AAV9, Liver DNA (NHP) values
Endpoint name: Fold Enrichment relative to AAV9, Liver DNA (NHP) (fold)

>>> numeric_readout("KTINGSGSPHSKALMRQT")
0.517
>>> numeric_readout("KTDVNSGSPHSKAQNQQT")
0.331
>>> numeric_readout("KTINGSGSPHSKVPNLQT")
0.082
>>> numeric_readout("KTINGSGSPHSKAIGKQT")
0.088
>>> numeric_readout("KTEPTSGSPHSKAQNQQT")
0.527
>>> numeric_readout("KAENGSGSPHSKAQNQQT")
0.242
>>> numeric_readout("KTINGSGSPHSKAQRDQT")
0.554
>>> numeric_readout("KTINGSGSPHSKAQLPST")
0.185
>>> numeric_readout("KTINGSGSPHSKAQKTLT")
1.400
>>> numeric_readout("KTINGSGSPHAKAQNHQT")
0.090
>>> numeric_readout("KTINGSGSPHSKARGLQT")
1.425
>>> numeric_readout("KTELGSGSPHSKAQNQQT")
0.088
>>> numeric_readout("KTSNGSGSPHSKAQNYQT")
0.110
>>> numeric_readout("KTINGGGSPHSKSQNRQT")
0.421
>>> numeric_readout("KAINRSGSPHSKAQDQQT")
0.036
>>> numeric_readout("KTSNGSGSPHSKAHYQQT")
0.204
>>> numeric_readout("KTEPMSGSPHSKAQNQQT")
0.415
